System: release of LH
Experiment: Release of LH in rats after sc injection
Format: in vivo
Conditions: 60 min. after sc injection, 3000 ng, LHRH = 100
Non-standard residues stand in square brackets, D forms with d. Residues, ends and D or L forms follow the SMILES beside them. pGlu = O=C1CC[C@@H](C(=O)O)N1
result type: LH % change (%)
Expressed in %, but write only the number.

# count of solved cases: 3
What value of measured LH % change is listed for CC(C)C[C@H](NC(=O)[C@H](Cc1c[nH]c2ccccc12)NC(=O)CNC(=O)[C@H](Cc1c[nH]cn1)NC(=O)[C@H](CO)NC(=O)[C@H](Cc1c[nH]c2ccccc12)NC(=O)[C@H](Cc1c[nH]cn1)NC(=O)[C@@H]1CCC(=O)N1)C(=O)N1CCC[C@H]1C(=O)NCC(N)=O [[His^5 Trp^7 Leu^8]--LHRH] ([pGlu]HWSHGWLPG-NH2) ?
6

Try this molecule next: CC(C)C[C@H](NC(=O)CNC(=O)[C@H](Cc1ccc(O)cc1)NC(=O)[C@H](CO)NC(=O)[C@H](Cc1c[nH]c2ccccc12)NC(=O)[C@H](Cc1c[nH]cn1)NC(=O)[C@@H]1CCC(=O)N1)C(=O)N[C@@H](CCCNC(=N)N)C(=O)N1CCC[C@H]1C(=O)NCC(N)=O [LHRH, reference compound]
100

Try this molecule next: CC(C)C[C@H](NC(=O)CNC(=O)[C@H](Cc1ccc(O)cc1)NC(=O)[C@H](CO)NC(=O)[C@H](Cc1c[nH]c2ccccc12)NC(=O)[C@H](Cc1c[nH]cn1)NC(=O)[C@@H]1CCC(=O)N1)C(=O)N[C@@H](Cc1ccc(O)cc1)C(=O)N1CCC[C@H]1C(=O)NCC(N)=O [[Tyr^8]--LHRH]
3

Further cases:
What value of measured LH % change is listed for CC(C)C[C@H](NC(=O)CNC(=O)[C@H](Cc1c[nH]cn1)NC(=O)[C@H](CO)NC(=O)[C@H](Cc1c[nH]c2ccccc12)NC(=O)[C@H](Cc1c[nH]cn1)NC(=O)[C@@H]1CCC(=O)N1)C(=O)N[C@@H](CCC(N)=O)C(=O)N1CCC[C@H]1C(=O)NCC(N)=O [[His^5 Gln^8]--LHRH] ([pGlu]HWSHGLQPG-NH2) ?
8.3

Try this molecule next: CC(C)C[C@H](NC(=O)CNC(=O)[C@H](Cc1c[nH]cn1)NC(=O)[C@H](CO)NC(=O)[C@H](Cc1c[nH]c2ccccc12)NC(=O)[C@H](Cc1c[nH]cn1)NC(=O)[C@@H]1CCC(=O)N1)C(=O)N[C@@H](CC(C)C)C(=O)N1CCC[C@H]1C(=O)NCC(N)=O [[His^5 Leu^8]--LHRH] ([pGlu]HWSHGLLPG-NH2)
2.2

* * *

System: release of LH
Assay: Release of LH in rats after sc injection
Assay type: in vivo
Settings: 60 min. after sc injection, 3000 ng, LHRH = 100
Non-standard residues stand in square brackets, D forms with d. Residues, ends and D or L forms follow the SMILES beside them. pGlu = O=C1CC[C@@H](C(=O)O)N1
result type: LH % change (%)
Expressed in %, but write only the number.

What value of measured LH % change is listed for NC(=O)CNC(=O)[C@@H]1CCCN1C(=O)[C@H](Cc1ccc(O)cc1)NC(=O)[C@H](Cc1c[nH]c2ccccc12)NC(=O)CNC(=O)[C@H](Cc1ccc(O)cc1)NC(=O)[C@H](CO)NC(=O)[C@H](Cc1c[nH]c2ccccc12)NC(=O)[C@H](Cc1c[nH]cn1)NC(=O)[C@@H]1CCC(=O)N1 [[Trp^7 Tyr^8]--LHRH] ([pGlu]HWSYGWYPG-NH2) ?
4.6

Try this compound next: NC(=O)CNC(=O)[C@@H]1CCCN1C(=O)[C@H](Cc1ccc(O)cc1)NC(=O)[C@H](Cc1c[nH]c2ccccc12)NC(=O)CNC(=O)[C@H](Cc1c[nH]cn1)NC(=O)[C@H](CO)NC(=O)[C@H](Cc1c[nH]c2ccccc12)NC(=O)[C@H](Cc1c[nH]cn1)NC(=O)[C@@H]1CCC(=O)N1 [[His^5 Trp^7 Tyr^8] (Chicken II), reference compound] ([pGlu]HWSHGWYPG-NH2)
10

Try this compound next: NC(=O)CC[C@H](NC(=O)[C@H](Cc1c[nH]c2ccccc12)NC(=O)CNC(=O)[C@H](Cc1c[nH]cn1)NC(=O)[C@H](CO)NC(=O)[C@H](Cc1c[nH]c2ccccc12)NC(=O)[C@H](Cc1c[nH]cn1)NC(=O)[C@@H]1CCC(=O)N1)C(=O)N1CCC[C@H]1C(=O)NCC(N)=O [[His^5 Trp^7 Gln^8]--LHRH] ([pGlu]HWSHGWQPG-NH2)
65
